- Assay summary: JHH-DIPG-1 glioma cell viability, MIPE5.0 library, CellTiter-Glo luminescence, qHTS (AID 1347067);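 note: cells exposed to compound for 48 hours before readout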
- Test settings: JHH-DIPG-1 glioma viability, CellTiter-Glo ATP luminescence
Results filed as inconclusive are left out. Calls of active or inactive are those of the source. No cut-off is given here; in the data, nearly all actives have AC50 up to about 26 µM.
Respond using exactly one of the listed classes: 1 for active, -1 for inactive

Answered cases to consult:
Cpd smiles | Class label
Cn1cc(-c2ccc3c(c2)CCN3C(=O)Cc2cccc(C(F)(F)F)c2)c2c(N)ncnc21 | -1
CCN(CC)CCCCNc1ncc2cc(-c3cc(OC)cc(OC)c3)c(NC(=O)NC(C)(C)C)nc2n1 | 1
CN1C(=O)[C@@H](NC(=O)c2cc(Cc3ccccc3)on2)COc2ccccc21 | -1
COc1cc2ncnc(Nc3cccc(Br)c3)c2cc1OC | 1

[Q] How did this test come out for C[C@H]1CNCCCN1S(=O)(=O)c1cccc2cncc(F)c12 ?
[A] -1

====

- Assay summary: CRL1545 cell growth, single agent and combined, cisplatin and BGB IC20 combos (AID 1671464);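 note: cells exposed to compound for 96 hours before readout; 0% = vehicle DMSO and 100% = high DMSO killing control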
- Test settings: CRL1545 osteosarcoma cells, measured here: with BGB IC20 combination, at 0.5 µM, stronger effect = higher value
Assign class by inhibition: not lower than 80% means t; lower than 80% means f.

Cpd smiles | Class label
NCCOc1cc(C(=O)Nc2cc(OCCN)c3ccccc3n2)nc(C(=O)Nc2cc(OCCN)c3ccccc3n2)c1 | f
N=C1CCCN1Cc1[nH]c(=O)[nH]c(=O)c1Cl | f
O=C(/C=C/c1cccc(S(=O)(=O)Nc2ccccc2)c1)NO | t

Turning now to a further record.
[Q] Could you please find out whether Nc1ccccc1NC(=O)c1ccc(CNc2nccc(-c3cccnc3)n2)cc1 has inhibition that meets 80% or exceeds it?
[A] f

====

- Assay summary: JHH-DIPG-1 glioma cell viability, MIPE5.0 library, CellTiter-Glo luminescence, qHTS (AID 1347067);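 note: cells exposed to compound for 48 hours before readout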
- Test settings: JHH-DIPG-1 glioma viability, CellTiter-Glo ATP luminescence
Inconclusive results are not listed. Calls of active or inactive are those of the source. No cut-off is given here; in the data, nearly all actives have AC50 up to about 26 µM.
Classes to choose from: class 1 = active, class 0 = inactive

Examples from the recorded data:
Compound | Class label
Cc1nc(Nc2n[nH]c3c2CN(C(=O)N[C@H](CN(C)C)c2ccccc2)C3(C)C)c2sccc2n1 | class 1
COc1ccc2c(c1)CC[C@@H]1[C@@H]2CC[C@]2(C)[C@@H](NCCCCCCN3C(=O)C=CC3=O)CC[C@@H]12 | class 0
Cc1ccc(NC(=O)c2ccc(CN3CC[C@H](N(C)C)C3)c(C(F)(F)F)c2)cc1Nc1nccc(-c2cncnc2)n1 | class 1
CCC(=C/[C@H](C)C/C=C/C(C)=C/[C@@H](C)C(=O)[C@@H](C)[C@H](O)[C@@H](C)C/C(C)=C/C(=O)O)/C=C/[C@@H]1OC(=O)C=C[C@@H]1C | class 1
CCOC(CN1C(=O)[C@](CC(=O)Nc2ccc(C)cc2)(NC(=O)Nc2ccc(C)cc2)c2ccccc21)OCC | class 1
COc1ccc(S(=O)(=O)N2CCc3cccc(-c4ccncc4)c32)cc1 | class 1

Consider now this further compound.
[Q] Can you look up the reported call for COC(C)(C)CCn1nc(Nc2c(C)cccc2C)c2cnc(Nc3ccc(OCCN4CCCC4)c(F)c3)nc21 for me?
[A] class 1

====

- Assay summary: MELAS cybrid and Rieske KO viability enhancers – cell-based, MELAS cybrids, Rieske KO mouse fibroblasts, CellTiter-Glo, primary screen (AID 1508586);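 note: z relative to plate mean and SD of compound and empty wells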
- Test settings: Rieske KO mouse fibroblast survival, low glucose, CellTiter-Glo 72 h
Mark Met only for z-score values smaller than -0.5; exact matches and larger values are Not met.

Compound | Class label
CNC(=O)c1cc(Oc2ccc(NC(=O)Nc3cc(C(C)(C)C)nn3-c3ccc4ncccc4c3)c(F)c2)ccn1 | Not met
Nc1ncnc2c1c(-c1cccc(OCc3ccccc3)c1)cn2C1CC(CN2CCCC2)C1 (stereo not drawn) | Not met

[Q] Does CNC(=O)c1nn(C)c2c1C(C)(C)Cc1cnc(Nc3ccc(N4CCN(C)CC4)cc3)nc1-2 have z-score strictly under -0.5?
[A] Met

[Q] z-score under -0.5? Item: Cc1c(NC(=O)c2ccc(C(C)(C)C)cc2)cccc1-c1cn(C)c(=O)c(Nc2ccc(C(=O)N3CCOCC3)cc2)n1
[A] Not met

[Q] Hello, I'm reviewing records and need to know if z-score of CO[C@H]1C[C@@H]2CC[C@@H](C)[C@@](O)(O2)C(=O)C(=O)N2CCCC[C@H]2C(=O)O[C@H]([C@H](C)C[C@@H]2CC[C@@H](O)[C@H](OC)C2)CC(=O)[C@H](C)/C=C(\C)[C@@H](O)[C@@H](OC)C(=O)[C@H](C)C[C@H](C)/C=C/C=C/C=C/1C is below -0.5. Could you check?
[A] Not met

[Q] Does the reported z-score of the following compound sit strictly below -0.5? O=C(c1cncc(Br)c1)N1CCC(N2CCCC2)CC1
[A] Met

[Q] Is -0.5 strictly greater than the compound's reported z-score? compound: C=CC(=O)Nc1cccc(Nc2nc(Nc3ccc(N4CCN(C(C)=O)CC4)cc3OC)ncc2C(F)(F)F)c1
[A] Not met

====

- Assay summary: viability loss with induced miR-34 in A549 – imaging, A549 dox-inducible miR-34, nuclei and caspase counts, primary screen (AID 1347080)
- Test settings: A549 miR-34 inducible, Hoechst nuclei count, 48 h; measured here: relative caspase fold change +Dox/-Dox
Classify: criterion met when fold change is strictly less than 0.8; criterion not met when fold change is not.

Observe how each entry below is paired with its result.
Molecule | Class label
CC(C)n1nc(-c2ccc3oc(N)nc3c2)c2c(N)ncnc21 | criterion met
CCCCCCCC/C=C\CCCCCCCC(=O)c1nc2ncccc2o1 | criterion not met
CNC(=O)c1ccccc1Nc1nc(Nc2ccc(N3CCOCC3)cc2OC)ncc1Cl | criterion not met

[Q] Please state whether fold change is below 0.8 for CCN(CC)c1ccc(C2=C(Cl)C(=O)c3ncccc3C2=O)cc1
[A] criterion not met

[Q] Report whether reported fold change is lower than 0.8 (strictly) for O=C(O)CCCCCC[C@H]1C(=O)C[C@@H](O)[C@@H]1/C=C/[C@@H](O)Cc1ccccc1
[A] criterion not met

[Q] Determine if O=C(NCc1ccc(Cl)c(Cl)c1)O[C@H]1CCc2ccccc21 shows fold change strictly lower than 0.8.
[A] criterion not met

[Q] Lab note: fold change threshold 0.8. Does this molecule come in strictly under it? CC1(C)CC(=O)C(C2C3=C(CC(C)(C)CC3=O)Oc3ccccc32)C(=O)C1 (stereo not given)
[A] criterion met

[Q] Could you please tell me whether fold change recorded for COc1cc(N)c(Cl)cc1C(=O)CCC1CCN(CCNS(C)(=O)=O)CC1 is less than 0.8?
[A] criterion met

[Q] In plain terms, does C1CC[C@H]2[N]=[Pt]=[N][C@@H]2C1.O=C(O)C(=O)O come in under 0.8 for fold change?
[A] criterion not met

====

- Assay summary: viability loss with induced miR-34 in A549 – imaging, A549 dox-inducible miR-34, nuclei and caspase counts, primary screen (AID 1347080)
- Test settings: A549 miR-34 inducible, Hoechst nuclei count, 48 h; measured here: total cells with miR-34 induction; stronger effect = lower value
Please respond with Satisfied when measured cell count is strictly beneath 5000, and with Not satisfied in all other cases.

Use the examples below as a reference point.
Compound | Class label
CC(C)CCCC(C)NC(C)C (stereo not given) | Not satisfied
C[C@@]1(c2cc(-c3cncnc3)c(F)cc2F)CCSC(N)=N1 | Not satisfied
O=C(/C=C/c1ccccc1)NC(NC(=S)Nc1ccc(Cl)cc1)C(Cl)(Cl)Cl (stereo not given) | Satisfied

[Q] Given the entry Nc1ccn([C@@H]2O[C@H](CO)[C@@H](O)C2(F)F)c(=O)n1 , would its reported cell count be below 5000?
[A] Satisfied

[Q] Please indicate whether the reported cell count of Cc1ncc(-c2ccnc(Nc3ccc(S(C)(=O)=O)cc3)n2)n1C(C)C is strictly below 5000.
[A] Satisfied

[Q] Hello, I'm reviewing records and need to know if cell count of O=C(O)CCC/C=C\C[C@@H]1[C@@H](/C=C/C(=O)CCc2ccccc2)[C@H](O)C[C@@H]1O is below 5000. Could you check?
[A] Not satisfied

[Q] Is the reported cell count for CCOC(=O)c1ccc(N=Nc2ccc(O)c(CC(=O)O)c2)cc1 strictly below 5000?
[A] Not satisfied

[Q] Would you kindly verify if cell count of CCOc1cc(N2CCC(O)CC2)ccc1Nc1ncc2c(n1)N(C)c1ccccc1C(=O)N2C is strictly less than 5000?
[A] Not satisfied

[Q] Please let me know if NC(=NCCCCCCN=C(N)N=C(N)Nc1ccc(Cl)cc1)N=C(N)Nc1ccc(Cl)cc1 shows cell count below 5000.
[A] Satisfied

[Q] Does the reported cell count of the following compound sit strictly below 5000? CCc1cc(C2NNC(C)C2c2ccc3c(c2)OCCO3)c(O)cc1O (stereo not given)
[A] Satisfied

Values were extracted from PubChem BioAssay.
